- assay-details: Pharmacokinetic study in mice (plasma and brain availability)
- Type: in vivo
- measurement-conditions: mouse, 10 mg/kg PO, brain
reported-metric: Cmax (ng/mL)
The answer is to be given in ng/mL; state only the numeric part.

Q: Can you look up the measured Cmax of `COc1ccc2[nH]c(=O)c3c(C)nn(-c4cc(OCC5CCC5)ccc4Cl)c3c2n1` for me?
Result: 17

----------
- assay-details: Pharmacokinetic study in mice (plasma and brain availability)
- Assay type: in vivo
- measurement-conditions: mouse, 10 mg/kg PO, brain
reported-metric: AUC(0-t) (ng·h/mL)
The answer is to be given in ng·h/mL; state only the numeric part.

Q: Can you look up the measured AUC(0-t) of `COc1ccc2[nH]c(=O)c3c(C)nn(-c4cc(OCC5CCC5)ccc4Cl)c3c2n1` for me?
Result: 50
